Item-by-item account of MIC
Test system: C. difficile 9689
Test: MIC by agar dilution against Clostridioides difficile, test strain 13
Type: cell-based
Conditions: test strain 13, C. difficile 9689, anaerobic, agar dilution, read-out: MIC

Below, each entry is followed by its recorded MIC result.
C/C=C1\NC(=O)[C@H]([C@@H](C)O)NC(=O)c2csc(n2)-c2ccc(-c3nc(-c4nc(C(=O)NC5(C(=O)NCCCCCB(O)O)CC5)cs4)cs3)nc2-c2csc(n2)[C@H]([C@@H](C)O)NC(=O)c2csc(n2)[C@H](C(C)C)NC(=O)c2csc1n2    0.25 µg/mL
C/C=C1\NC(=O)[C@H]([C@@H](C)O)NC(=O)c2csc(n2)-c2ccc(-c3nc(-c4nc(C(=O)NC5(C(=O)NCCCCB(O)O)CC5)cs4)cs3)nc2-c2csc(n2)[C@H]([C@@H](C)O)NC(=O)c2csc(n2)[C@H](C(C)C)NC(=O)c2csc1n2    0.25 µg/mL
C/C=C1\NC(=O)[C@H]([C@@H](C)O)NC(=O)c2csc(n2)-c2ccc(-c3nc(-c4nc(C(=O)NC5(C(=O)NCC6OB(O)c7ccccc76)CC5)cs4)cs3)nc2-c2csc(n2)[C@H]([C@@H](C)O)NC(=O)c2csc(n2)[C@H](C(C)C)NC(=O)c2csc1n2 (stereo partly shown)    1 µg/mL

Task item: Provide only the value of recorded MIC for C/C=C1\NC(=O)[C@H]([C@@H](C)O)NC(=O)c2csc(n2)-c2ccc(-c3nc(-c4nc(C(=O)NC5(C(=O)NCCCn6c(=O)[nH]cc([N+](=O)[O-])c6=O)CC5)cs4)cs3)nc2-c2csc(n2)[C@H]([C@@H](C)O)NC(=O)c2csc(n2)[C@H](C(C)C)NC(=O)c2csc1n2
Reply: 0.125 µg/mL

====

Tested on: C. difficile 9689
Experiment: MIC by agar dilution against Clostridioides difficile, test strain 13
Format: cell-based
Details: test strain 13, C. difficile 9689, anaerobic, agar dilution, read-out: MIC
Recorded measurements of MIC, one per entry
The figure you give is taken to be in µg/mL; do not add the unit.

CN[C@H](CC(C)C)C(=O)N[C@H]1C(=O)N[C@@H](CC(N)=O)C(=O)N[C@H]2C(=O)N[C@H]3C(=O)N[C@H](C(=O)N[C@H](C(=O)O)c4cc(O)cc(O)c4-c4cc3ccc4O)[C@H](O)c3ccc(c(Cl)c3)Oc3cc2cc(c3O[C@@H]2O[C@H](CO)[C@@H](O)[C@H](O)[C@H]2O[C@H]2C[C@](C)(N)[C@H](O)[C@H](C)O2)Oc2ccc(cc2Cl)[C@H]1O [Van, Vancomycin, reference compound]    2

Task item: Report MIC, nothing else, for this molecule: C/C=C(\NC(=O)c1csc(-c2csc(-c3ccc4c(n3)-c3csc(n3)[C@H]([C@@H](C)O)NC(=O)c3csc(n3)[C@H](C(C)C)NC(=O)c3csc(n3)/C(=C/C)NC(=O)[C@H]([C@@H](C)O)NC(=O)c3csc-4n3)n2)n1)C(=O)NCCn1cc([N+](=O)[O-])nc1C [Compound 41]
Reply: 0.5

====

Test system: C. difficile 174
Assay: MIC by agar dilution against Clostridioides difficile, test strain 18
Type: cell-based
Settings: test strain 18, C. difficile 174, anaerobic, agar dilution, read-out: MIC
For each record, check the reported MIC: if it is below 0.2 µg/mL write fulfilled, else write not fulfilled.

Here are 3 compounds together with their reported answers.
C/C=C(\NC(=O)c1csc(-c2csc(-c3ccc4c(n3)-c3csc(n3)[C@H]([C@@H](C)O)NC(=O)c3csc(n3)[C@H](C(C)C)NC(=O)c3csc(n3)/C(=C/C)NC(=O)[C@H]([C@@H](C)O)NC(=O)c3csc-4n3)n2)n1)C(=O)NCCn1cnc([N+](=O)[O-])n1 [Compound 42]    not fulfilled
C/C=C(\NC(=O)c1csc(-c2csc(-c3ccc4c(n3)-c3csc(n3)[C@H]([C@@H](C)O)NC(=O)c3csc(n3)[C@H](C(C)C)NC(=O)c3csc(n3)/C(=C/C)NC(=O)[C@H]([C@@H](C)O)NC(=O)c3csc-4n3)n2)n1)C(=O)NCCn1ccnc1[N+](=O)[O-] [Compound 43]    not fulfilled
C/C=C1\NC(=O)[C@H]([C@@H](C)O)NC(=O)c2csc(n2)-c2ccc(-c3nc(-c4nc(C(=O)NC5(C(=O)NCCCN6CCOCC6)CC5)cs4)cs3)nc2-c2csc(n2)[C@H]([C@@H](C)O)NC(=O)c2csc(n2)[C@H](C(C)C)NC(=O)c2csc1n2 [Compound 7]    fulfilled

Task item: Input C/C=C1\NC(=O)[C@H]([C@@H](C)O)NC(=O)c2csc(n2)-c2ccc(-c3nc(-c4nc(C(=O)NC5(C(=O)NCCn6ccnc6[N+](=O)[O-])CC5)cs4)cs3)nc2-c2csc(n2)[C@H]([C@@H](C)O)NC(=O)c2csc(n2)[C@H](C(C)C)NC(=O)c2csc1n2 [Compound 39] ; condition: MIC strictly below 0.2 µg/mL. Does it hold?
Reply: not fulfilled

Task item: Decide: MIC of C/C=C1\NC(=O)[C@H]([C@@H](C)O)NC(=O)c2csc(n2)-c2ccc(-c3nc(-c4nc(C(=O)NC5(C(=O)NCCCB(O)O)CC5)cs4)cs3)nc2-c2csc(n2)[C@H]([C@@H](C)O)NC(=O)c2csc(n2)[C@H](C(C)C)NC(=O)c2csc1n2 [Compound 10] strictly below 0.2 µg/mL?
Reply: fulfilled

Task item: # check: MIC < 0.2 µg/mL for C/C=C1\NC(=O)[C@H]([C@@H](C)O)NC(=O)c2csc(n2)-c2ccc(-c3nc(-c4nc(C(=O)NC5(C(=O)NCc6ncc([N+](=O)[O-])n6C)CC5)cs4)cs3)nc2-c2csc(n2)[C@H]([C@@H](C)O)NC(=O)c2csc(n2)[C@H](C(C)C)NC(=O)c2csc1n2 [Compound 44]
Reply: not fulfilled

Task item: I wonder whether C/C=C(\NC(=O)c1csc(-c2csc(-c3ccc4c(n3)-c3csc(n3)[C@H]([C@@H](C)O)NC(=O)c3csc(n3)[C@H](C(C)C)NC(=O)c3csc(n3)/C(=C/C)NC(=O)[C@H]([C@@H](C)O)NC(=O)c3csc-4n3)n2)n1)C(=O)NCCn1c([N+](=O)[O-])cnc1C [Compound 3] has MIC below 0.2 µg/mL. Can you tell?
Reply: not fulfilled

Task item: Strictly below 0.2 µg/mL in MIC? C/C=C1\NC(=O)[C@H]([C@@H](C)O)NC(=O)c2csc(n2)-c2ccc(-c3nc(-c4nc(C(=O)NC5(C(=O)NCCCn6c(=O)[nH]cc([N+](=O)[O-])c6=O)CC5)cs4)cs3)nc2-c2csc(n2)[C@H]([C@@H](C)O)NC(=O)c2csc(n2)[C@H](C(C)C)NC(=O)c2csc1n2 [Compound 22]
Reply: fulfilled

Task item: Here's an entry: C/C=C1\NC(=O)[C@H]([C@@H](C)O)NC(=O)c2csc(n2)-c2ccc(-c3nc(-c4nc(C(=O)NC5(C(=O)NCCn6c([N+](=O)[O-])cnc6C)CC5)cs4)cs3)nc2-c2csc(n2)[C@H]([C@@H](C)O)NC(=O)c2csc(n2)[C@H](C(C)C)NC(=O)c2csc1n2 [Compound 11] . Is its MIC below 0.2 µg/mL?
Reply: fulfilled

Task item: Could you please tell me whether MIC recorded for C/C=C1\NC(=O)[C@H]([C@@H](C)O)NC(=O)c2csc(n2)-c2ccc(-c3nc(-c4nc(C(=O)NC5(C(=O)NCCCN6CCN(C(C)C)CC6)CC5)cs4)cs3)nc2-c2csc(n2)[C@H]([C@@H](C)O)NC(=O)c2csc(n2)[C@H](C(C)C)NC(=O)c2csc1n2 [Compound 12] is less than 0.2 µg/mL?
Reply: fulfilled

Task item: In plain terms, does C/C=C1\NC(=O)[C@H]([C@@H](C)O)NC(=O)c2csc(n2)-c2ccc(-c3nc(-c4nc(C(=O)NC5(C(=O)NCCn6cc([N+](=O)[O-])nc6C)CC5)cs4)cs3)nc2-c2csc(n2)[C@H]([C@@H](C)O)NC(=O)c2csc(n2)[C@H](C(C)C)NC(=O)c2csc1n2 [Compound 45] come in under 0.2 µg/mL for MIC?
Reply: not fulfilled

Task item: Consider C/C=C(\NC(=O)c1csc(-c2csc(-c3ccc4c(n3)-c3csc(n3)[C@H]([C@@H](C)O)NC(=O)c3csc(n3)[C@H](C(C)C)NC(=O)c3csc(n3)/C(=C/C)NC(=O)[C@H]([C@@H](C)O)NC(=O)c3csc-4n3)n2)n1)C(=O)NCCN1CCOCC1 [Compound 1] . Does its MIC lie strictly below 0.2 µg/mL?
Reply: not fulfilled

Task item: Does this compound meet the criterion MIC < 0.2 µg/mL? C/C=C1\NC(=O)[C@H]([C@@H](C)O)NC(=O)c2csc(n2)-c2ccc(-c3nc(-c4nc(C(=O)NC5(C(=O)NCCCN6C(=O)CNC6=O)CC5)cs4)cs3)nc2-c2csc(n2)[C@H]([C@@H](C)O)NC(=O)c2csc(n2)[C@H](C(C)C)NC(=O)c2csc1n2 [Compound 9]
Reply: fulfilled

Task item: MIC strictly < 0.2 µg/mL for this compound? C/C=C1\NC(=O)[C@H]([C@@H](C)O)NC(=O)c2csc(n2)-c2ccc(-c3nc(-c4nc(C(=O)NC5(C(=O)NCCCN6CCSCC6)CC5)cs4)cs3)nc2-c2csc(n2)[C@H]([C@@H](C)O)NC(=O)c2csc(n2)[C@H](C(C)C)NC(=O)c2csc1n2 [Compound 18]
Reply: not fulfilled

src = patent US12637478B2
